Measured values drawn from ChEMBL document CHEMBL4765239 for this set.

Target: 5-hydroxytryptamine receptor 3A (Homo sapiens)
Assay: Displacement of [3H]BRL 43694 from human recombinant 5-HT3 receptor at 10 uM after 120 mins by scintillation counting analysis relative to control
Conditions: filed as antagonist
# inhibition listing for each entry below
READOUT: inhibition (%)

COMPOUND STRUCTURE STRING: CN1CCN(c2nc3ncc(Br)cc3n3nnnc23)CC1
NUMERIC READOUT: 89
//
COMPOUND STRUCTURE STRING: CN1CCN(c2nc3ncc(Cl)cc3n3nnnc23)CC1
NUMERIC READOUT: 85
//
COMPOUND STRUCTURE STRING: CN1CCN(c2nc3ncc(Cl)cc3n3cnnc23)CC1
NUMERIC READOUT: 100
//
COMPOUND STRUCTURE STRING: CN(C)C1CN(c2nc3ncc(Cl)cc3n3cnnc23)C1
NUMERIC READOUT: 77.5
//
COMPOUND STRUCTURE STRING: CNC1CN(c2nc3ncc(Cl)cc3n3cnnc23)C1
NUMERIC READOUT: 50
//
COMPOUND STRUCTURE STRING: CN1CCN(c2nc3ncc(Cl)cc3c3ncnn23)CC1
NUMERIC READOUT: 96
